Tested on: Staphylococcus aureus
Assay: microbe, parasite or virus in culture
Format: functional
Lab note: compare MIC with 100 µg/mL, writing rule met if less and rule not met if equal or more.

COc1ccc(-[n+]2noc([O-])c2Cn2c(-c3ccc(OC)c([N+](=O)[O-])c3)nc3ccccc32)cc1 = rule not met

QUERY: Given the entry COc1ccc(-[n+]2noc([O-])c2CNc2ccc(Cl)cc2)cc1 , would its reported MIC be below 100 µg/mL?
RESULT: rule not met

QUERY: Please give the result for COc1ccc(-[n+]2noc([O-])c2CNc2ccc([N+](=O)[O-])cc2)cc1 too.
RESULT: rule not met

* * *

System: Escherichia coli
Experiment: microbe, parasite or virus in culture
Format: functional
readout-name: MIC (µg/mL)
Supply the numeric figure in µg/mL, leaving out any unit text.

Reference set (2 entries):
COc1ccc(-[n+]2noc([O-])c2CNc2nc3ccc(F)cc3s2)cc1 = 300
CC1(C)S[C@@H]2[C@H](NC(=O)[C@H](N)c3ccccc3)C(=O)N2[C@H]1C(=O)O [AMPICILLIN] = 100

# input for lookup
QUERY: Fill blank: measured MIC of the compound COc1ccc(-[n+]2noc([O-])c2Cn2c(-c3ccc([N+](=O)[O-])cc3)nc3ccccc32)cc1 is ____.
RESULT: 60

* * *

Tested on: Pseudomonas aeruginosa
Test: microbe, parasite or virus in culture
Assay type: functional
In this section we review reported MIC values for a set of molecules.
Give the number first and the unit second.

Reference set (2 entries):
COc1ccc(-[n+]2noc([O-])c2CNc2ccccc2[N+](=O)[O-])cc1 = 200 µg/mL
COc1ccc(-[n+]2noc([O-])c2Cn2cnc3ccccc32)cc1 = 500 µg/mL

QUERY: Fill blank: measured MIC of the molecule COc1ccc(NCc2c([O-])on[n+]2-c2ccc(OC)cc2)cc1 is ____.
RESULT: 100 µg/mL

QUERY: Please give the result for COc1ccc(-[n+]2noc([O-])c2CNc2ccc(Cl)cc2)cc1 too.
RESULT: 300 µg/mL

QUERY: Please give the result for COc1ccc(-[n+]2noc([O-])c2Cn2c(-c3ccc(Cl)cc3Cl)nc3ccccc32)cc1 too.
RESULT: 300 µg/mL

QUERY: Please give the result for COc1ccc(-[n+]2noc([O-])c2CNc2ccc(C)cc2)cc1 too.
RESULT: 200 µg/mL

QUERY: Please give the result for COc1ccc(-[n+]2noc([O-])c2Cn2c(-c3ccccc3[N+](=O)[O-])nc3ccccc32)cc1 too.
RESULT: 500 µg/mL

QUERY: Please give the result for COc1ccc(-[n+]2noc([O-])c2CNc2nc3ccc(Cl)cc3s2)cc1 too.
RESULT: 200 µg/mL

QUERY: Please give the result for CC1(C)S[C@@H]2[C@H](NC(=O)Cc3ccccc3)C(=O)N2[C@H]1C(=O)O too.
RESULT: 0.25 µg/mL

QUERY: Please give the result for COc1ccc(-[n+]2noc([O-])c2CNc2nc3ccc(C#N)cc3s2)cc1 too.
RESULT: 500 µg/mL

QUERY: Please give the result for COc1ccc(-[n+]2noc([O-])c2CNc2nc3ccc(Br)cc3s2)cc1 too.
RESULT: 200 µg/mL

QUERY: Please give the result for COc1ccc(-[n+]2noc([O-])c2CNc2nc3cc([N+](=O)[O-])ccc3s2)cc1 too.
RESULT: 500 µg/mL

QUERY: Please give the result for COc1ccc(-[n+]2noc([O-])c2CNc2ccccc2Cl)cc1 too.
RESULT: 500 µg/mL

QUERY: Please give the result for COc1ccc(-[n+]2noc([O-])c2CNc2ccc(F)cc2)cc1 too.
RESULT: 300 µg/mL

QUERY: Please give the result for CCOc1ccc(NCc2c([O-])on[n+]2-c2ccc(OC)cc2)cc1 too.
RESULT: 100 µg/mL

QUERY: Please give the result for COc1ccc(-[n+]2noc([O-])c2Cn2c(-c3ccc(Cl)c(Cl)c3)nc3ccccc32)cc1 too.
RESULT: 300 µg/mL

QUERY: Please give the result for COc1ccc(-[n+]2noc([O-])c2CNc2ccc(Br)cc2)cc1 too.
RESULT: 200 µg/mL

* * *

In this section we review reported MIC values for a set of compounds.
System: Escherichia coli
Test: microbe, parasite or virus in culture
Format: functional
Supply the numeric figure in µg/mL, leaving out any unit text.

QUERY: Fill blank: measured MIC of the compound COc1ccc(-[n+]2noc([O-])c2CNc2ccc(Cl)cc2)cc1 is ____.
RESULT: 300

* * *

System: Candida albicans
Test: microbe, parasite or virus in culture
Assay type: functional
readout-name: MIC

Reference set (5 entries):
COc1ccc(-[n+]2noc([O-])c2Cn2c(-c3ccccc3[N+](=O)[O-])nc3ccccc32)cc1 = 200 µg/mL
COc1ccc(-[n+]2noc([O-])c2CNc2ccc(F)cc2)cc1 = 100 µg/mL
COc1ccc(-[n+]2noc([O-])c2Cn2c(-c3ccc(Cl)cc3)nc3ccccc32)cc1 = 200 µg/mL
COc1ccc(-[n+]2noc([O-])c2CNc2ccc(Cl)cc2)cc1 = 80 µg/mL
COc1ccc(-[n+]2noc([O-])c2Cn2c(-c3ccc(OC)c([N+](=O)[O-])c3)nc3ccccc32)cc1 = 200 µg/mL

QUERY: Fill blank: measured MIC of the compound COc1ccc(-[n+]2noc([O-])c2CNc2ccccc2[N+](=O)[O-])cc1 is ____.
RESULT: 200 µg/mL

QUERY: Please give the result for COc1ccc(-[n+]2noc([O-])c2Cn2c(-c3ccc(Cl)c(Cl)c3)nc3ccccc32)cc1 too.
RESULT: 200 µg/mL

QUERY: Please give the result for COc1ccc(-[n+]2noc([O-])c2Cn2c(-c3ccc(Cl)cc3Cl)nc3ccccc32)cc1 too.
RESULT: 200 µg/mL

QUERY: Please give the result for COc1ccc(-[n+]2noc([O-])c2CNc2nc3ccc(C#N)cc3s2)cc1 too.
RESULT: 100 µg/mL

QUERY: Please give the result for COc1ccc(-[n+]2noc([O-])c2CNc2nc3ccc(F)cc3s2)cc1 too.
RESULT: 200 µg/mL

QUERY: Please give the result for COc1ccc(-[n+]2noc([O-])c2Cn2c(-c3cccc(Br)c3)nc3ccccc32)cc1 too.
RESULT: 200 µg/mL

QUERY: Please give the result for COc1ccc(-[n+]2noc([O-])c2CNc2nc3ccc(Cl)cc3s2)cc1 too.
RESULT: 100 µg/mL

* * *

Tested on: Staphylococcus aureus
Assay: microbe, parasite or virus in culture
Type: functional
readout-name: MIC (µg/mL)
Supply the numeric figure in µg/mL, leaving out any unit text.

QUERY: Record COc1ccc(-[n+]2noc([O-])c2CNc2ccc(C)cc2)cc1 : what is its MIC with Staphylococcus aureus?
RESULT: 200

QUERY: Please give the result for COc1ccc(-[n+]2noc([O-])c2Cn2c(-c3cccc(Br)c3)nc3ccccc32)cc1 too.
RESULT: 500

QUERY: Please give the result for COc1ccc(-[n+]2noc([O-])c2CNc2nc3cc([N+](=O)[O-])ccc3s2)cc1 too.
RESULT: 500

QUERY: Please give the result for COc1ccc(NCc2c([O-])on[n+]2-c2ccc(OC)cc2)cc1 too.
RESULT: 80

* * *

System: Escherichia coli
Assay: microbe, parasite or virus in culture
Assay type: functional
Lab note: compare MIC with 300 µg/mL, writing Y if less and N if equal or more.

These recorded examples may help you get a feel for the data.
CN[C@@H]1[C@H](O[C@H]2[C@H](O[C@H]3[C@H](O)[C@@H](O)[C@H](N=C(N)N)[C@@H](O)[C@@H]3N=C(N)N)O[C@@H](C)[C@]2(O)C=O)O[C@@H](CO)[C@H](O)[C@H]1O = Y
COc1ccc(-[n+]2noc([O-])c2CNc2nc3c([N+](=O)[O-])cccc3s2)cc1 = Y
COc1ccc(-[n+]2noc([O-])c2CNc2ccc([N+](=O)[O-])cc2)cc1 = Y
COc1ccc(-[n+]2noc([O-])c2Cn2cnc3ccccc32)cc1 = N
COc1ccc(NCc2c([O-])on[n+]2-c2ccc(OC)cc2)cc1 = Y

QUERY: Given the entry COc1ccc(-[n+]2noc([O-])c2Cn2c(-c3ccccc3Br)nc3ccccc32)cc1 , would its reported MIC be below 300 µg/mL?
RESULT: Y

QUERY: Please give the result for COc1ccc(-[n+]2noc([O-])c2CNc2cc(Cl)ccc2Cl)cc1 too.
RESULT: N

QUERY: Please give the result for COc1ccc(-[n+]2noc([O-])c2CNc2ccc(C)cc2)cc1 too.
RESULT: Y

* * *

Test system: Staphylococcus aureus
Test: microbe, parasite or virus in culture
Type: functional
Lab note: compare MIC with 200 µg/mL, writing fulfilled if less and not fulfilled if equal or more.

These recorded examples may help you get a feel for the data.
COc1ccc(-[n+]2noc([O-])c2CNc2ccc(Br)cc2)cc1 = not fulfilled
CC1(C)S[C@@H]2[C@H](NC(=O)[C@H](N)c3ccccc3)C(=O)N2[C@H]1C(=O)O [AMPICILLIN] = not fulfilled
COc1ccc(-[n+]2noc([O-])c2CNc2nc3ccc(F)cc3s2)cc1 = not fulfilled
CCOc1ccc(NCc2c([O-])on[n+]2-c2ccc(OC)cc2)cc1 = fulfilled
COc1ccc(-[n+]2noc([O-])c2CNc2nc3ccc(OC)cc3s2)cc1 = fulfilled

QUERY: Given the entry O=C(O)c1cn(C2CC2)c2cc(N3CCNCC3)c(F)cc2c1=O [CIPROFLOXACIN] , would its reported MIC be below 200 µg/mL?
RESULT: fulfilled

QUERY: Please give the result for COc1ccc(-[n+]2noc([O-])c2CNc2nc3ccc([N+](=O)[O-])cc3s2)cc1 too.
RESULT: fulfilled

QUERY: Please give the result for COc1ccc(-[n+]2noc([O-])c2CNc2nc3c([N+](=O)[O-])cccc3s2)cc1 too.
RESULT: fulfilled
